These measurements were taken from patent US20220185898A1.

# test_target: T1, human Sortilin expressed on 293 / HEK293T cells (human, UniProt Q99523 78-830)
# T1 construct: full-length recombinant human Sortilin; also called hSort; SORT1
# protocol_text: FACS, 293 cells;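 note: antibodies at 10 µg/ml bound to cells for 1 h on ice, detected with PE-labelled anti-human secondary antibody by flow cytometry, reported as mean fluorescence intensity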
metric_name: MFI
The answer should be a number; do not append a unit.

Some solved cases for reference:
binder	result_value
S-9 (antibody, V domains shown, IgG) VH: QVQLVQSGAEVKKPGASVKVSCKASGYTFTSYGISWVRQAPGQGLEWMGWISAYNGNTNYAQKLQGRVTMTTDTSTSTAYMELRSLRSDDTAVYYCARDPGGYGPTLYYYYGMDVWGQGTTVTVSS VL: EIVMTQSPATLSVSPGERATLSCRASQSVSSNLAWYQQKPGQAPRLLIYGASTRATGIPARFSGSGSGTEFTLTISSLQSEDFAVYYCQQYNIYPLTFGGGTKVEIK	10300
S-64 (antibody, V domains shown, IgG) VH: QVQLQESGPGLVKPSETLSLTCAVSGYSISSGYYWGWIRQPPGKGLEWIGSIYHSGSTYYNPSLKSRVTISVDTSKNQFSLKLSSVTAADTAVYYCARAEHRGPRYFDLWGRGTLVTVSS VL: DIQMTQSPSSLSASVGDRVTITCRASQSINSYLNWYQQKPGKAPKLLIYAASSLQSGVPSRFSGSGSGTDFTLTISSLQPEDFATYYCQQLDSTPITFGGGTKVEIK	7930

Note: attention shifts to another entry.
Consider S-26 (antibody, V domains shown, IgG) VH: EVQLVESGGGLVKPGGSLRLSCAASGFTFSSYSMNWVRQAPGKGLEWVSSISSSSSYIYYADSVKGRFTISRDNAKNSLYLQMNSLRAEDTAVYYCARDRLGRGYKWNWFDPWGQGTLVTVSS VL: DIQMTQSPSSVSASVGDRVTITCRASQGIDSWLAWYQQKPGKAPKLLIYAASSLQSGVPSRFSGSGSGTDFTLTISSLQPEDFATYYCQQGNSLPPITFGGGTKVEIK . Its measured MFI is 9020
